Origin of measurements: paper PMC7830743

- Experimental Details: Liver cytosolic stability
- Type: in vitro ADME, and rat
- Measurement Parameters: human, mouse, rat, liver cytosol
Quantity Kind: half-life

Qu. What measured half-life goes with Cc1ccc(C#Cc2cccc(-c3nn(-c4nc(C(=O)O)cs4)c(CC4CC4)c3Cc3ccc(S(N)(=O)=O)c(F)c3)c2)s1 [Compound 52] ?
Ans. > 2 h

----------
- Experimental Details: Metabolic stability in hepatocytes
- Format: in vitro ADME, and mouse
- Measurement Parameters: rat, dog, mouse
Quantity Kind: half-life

Qu. Any idea what its half-life is? The molecule is Cc1ccc(C#Cc2cccc(-c3nn(-c4nc(C(=O)O)cs4)c(CC4CC4)c3Cc3ccc(S(N)(=O)=O)c(F)c3)c2)s1
Ans. > 2.5 h

----------
- Target Or System: CYP450 2B6 (Homo sapiens, UniProt P20813)
- Sequence (P20813 whole entry): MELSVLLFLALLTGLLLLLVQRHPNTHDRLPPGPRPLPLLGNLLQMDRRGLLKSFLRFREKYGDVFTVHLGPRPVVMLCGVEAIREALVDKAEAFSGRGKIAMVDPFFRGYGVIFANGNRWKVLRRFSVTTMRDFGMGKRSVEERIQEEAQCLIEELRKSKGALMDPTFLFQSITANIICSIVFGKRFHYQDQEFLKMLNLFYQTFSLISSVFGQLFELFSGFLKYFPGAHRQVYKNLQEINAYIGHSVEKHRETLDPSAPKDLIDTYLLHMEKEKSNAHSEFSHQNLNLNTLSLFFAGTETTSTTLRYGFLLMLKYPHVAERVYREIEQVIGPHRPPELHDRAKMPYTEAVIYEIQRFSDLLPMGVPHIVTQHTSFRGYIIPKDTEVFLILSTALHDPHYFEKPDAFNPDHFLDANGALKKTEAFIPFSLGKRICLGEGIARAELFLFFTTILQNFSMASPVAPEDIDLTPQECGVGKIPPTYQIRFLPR
Quantity Kind: IC50

Qu. What value of IC50 has been reported for the following molecule? Cc1ccc(C#Cc2cccc(-c3nn(-c4nc(C(=O)O)cs4)c(CC4CC4)c3Cc3ccc(S(N)(=O)=O)c(F)c3)c2)s1
Ans. 14 µM

----------
- Target Or System: CYP450 2C8 (Homo sapiens, UniProt P10632)
- Sequence (P10632 1-490): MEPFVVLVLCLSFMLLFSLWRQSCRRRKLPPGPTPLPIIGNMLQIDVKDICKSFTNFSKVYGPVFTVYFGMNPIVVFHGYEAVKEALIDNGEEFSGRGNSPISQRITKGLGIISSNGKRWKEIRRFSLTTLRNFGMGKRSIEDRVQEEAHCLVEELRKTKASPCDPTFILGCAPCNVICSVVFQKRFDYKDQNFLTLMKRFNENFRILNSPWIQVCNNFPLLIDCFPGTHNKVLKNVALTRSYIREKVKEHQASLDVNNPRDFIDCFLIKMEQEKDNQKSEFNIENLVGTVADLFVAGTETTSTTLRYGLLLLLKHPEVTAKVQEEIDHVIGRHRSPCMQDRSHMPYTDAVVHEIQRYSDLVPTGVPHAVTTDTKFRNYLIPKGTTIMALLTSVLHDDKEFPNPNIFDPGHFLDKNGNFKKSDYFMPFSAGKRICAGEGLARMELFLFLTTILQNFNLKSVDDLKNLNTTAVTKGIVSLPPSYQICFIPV
Quantity Kind: pIC50
The value called pIC50 is obtained by taking minus log10 of the concentration in mol/L.

Qu. Look up pIC50 for this molecule: Cc1ccc(C#Cc2cccc(-c3nn(-c4nc(C(=O)O)cs4)c(CC4CC4)c3Cc3ccc(S(N)(=O)=O)c(F)c3)c2)s1 [Compound 52]
Ans. 5.12

----------
Catalogue of IC50 readings, one per entry.
- Target Or System: LDHA with C-terminal HiBiT fusion tag (Homo sapiens, UniProt P00338)
- Experimental Details: SplitLuc CETSA
Numeric only. Scale: µM

Please review the entries below; each comes with its answer.
NS(=O)(=O)c1ccc(Cc2c(-c3ccc(F)c(C#CC4(O)COC4)c3)nn(-c3nc(C(=O)O)cs3)c2CC2CC2)cc1F [Compound 28] : 1.5
Cc1ccc(C#Cc2cccc(-c3nn(-c4nc(C(=O)O)cs4)c(CC4(C)CC4)c3Cc3ccc(S(N)(=O)=O)c(F)c3)c2)s1 [Compound 86] : 0.251
NS(=O)(=O)c1ccc(Cc2c(-c3ccc(F)c(C#CC4(F)CCCC4)c3)nn(-c3nc(C(=O)O)cs3)c2CC2CC2)cc1F [Compound 24] : 0.095
Cc1ccc(C#Cc2cccc(-c3nn(-c4nc(C(=O)O)cs4)c(C4CC45CC5)c3Cc3ccc(S(N)(=O)=O)c(F)c3)c2)s1 (stereo not drawn) [Compound 87] : 0.175
NS(=O)(=O)c1ccc(Cc2c(-c3ccc(F)c(C#CC4(F)COC4)c3)nn(-c3nc(C(=O)O)cs3)c2CC2CC2)cc1F [Compound 27] : 0.126
NS(=O)(=O)c1ccc(Cc2c(-c3ccc(F)c(C#CC4(F)CCOC4)c3)nn(-c3nc(C(=O)O)cs3)c2CC2CC2)cc1F (stereo not drawn) [Compound 30] : 0.201
Cc1ccc(C#Cc2cccc(-c3nn(-c4nc(C(=O)O)cs4)c(C4CC4C4CC4)c3Cc3ccc(S(N)(=O)=O)c(F)c3)c2)s1 (stereo not drawn) [Compound 88] : 1.03
Cc1ccc(C#Cc2cccc(-c3nn(-c4nc(C(=O)O)cs4)c(C(C4CC4)C4CC4)c3Cc3ccc(S(N)(=O)=O)c(F)c3)c2)s1 [Compound 89] : 3.18
NS(=O)(=O)c1ccc(Cc2c(-c3ccc(F)c(C#CC4(O)CCCC4)c3)nn(-c3nc(C(=O)O)cs3)c2CC2CC2)cc1F [Compound 25] : 0.15
C=C(c1cc(-c2nn(-c3nc(C(=O)O)cs3)c(CC3CC3)c2Cc2ccc(S(N)(=O)=O)c(F)c2)ccc1F)C(F)(F)F [Compound 73] : 0.398

Qu. Entry Cc1ccc(C#Cc2cccc(-c3nn(-c4nc(C(=O)O)cs4)c(C(C)C4CC4)c3Cc3ccc(S(N)(=O)=O)c(F)c3)c2)s1 (stereo not drawn) [Compound 84] has what IC50?
Ans. 0.708

Qu. Which IC50 value belongs to CC1(C#Cc2cc(-c3nn(-c4nc(C(=O)O)cs4)c(CC4CC4)c3Cc3ccc(S(N)(=O)=O)c(F)c3)ccc2F)COC1 [Compound 26] ?
Ans. 0.084

Qu. Data request, read-out IC50, for Cc1ccc(C#Cc2cccc(-c3nn(-c4nc(C(=O)O)cs4)c(C(C)(C)C4CC4)c3Cc3ccc(S(N)(=O)=O)c(F)c3)c2)s1 [Compound 85]
Ans. 10.8

Qu. Which measured IC50 value corresponds to Cc1cc(C#Cc2cccc(-c3nn(-c4nc(C(=O)O)cs4)c(CCC4CC4)c3Cc3ccc(S(N)(=O)=O)c(F)c3)c2)cs1 [Compound 77] ?
Ans. 0.142

Qu. Param item = NS(=O)(=O)c1ccc(Cc2c(-c3ccc(F)c(C#CC4(O)CCOC4)c3)nn(-c3nc(C(=O)O)cs3)c2CC2CC2)cc1F (stereo not drawn) [Compound 31] ; retrieve measured IC50.
Ans. 0.815
